// mean geometric MIC, Vancomycin Sensitive Strains lookup, one value per entry
- Tested on: vancomycin-susceptible enterococci
- EXPERIMENTAL_DETAILS: broth micro-dilution, mean geometric MIC
- Assay type: cell-based, Enterococcus faecium and Enterococcus faecalis
- STUDY_CONDITIONS: enterococci, 24-hour incubation
Express the result in µg/mL but write the number alone.

Some entries whose results are on file:
[
  {
    "MOLECULE": "CNC(CC(C)C)C(=O)NC1C(=O)NC(CC(N)=O)C(=O)NC2C(=O)NC3C(=O)NC(C(=O)NC(C(=O)O)c4cc(O)cc(O)c4-c4cc3ccc4O)C(OC3CC(C)(N)C(O)C(C)O3)c3ccc(c(Cl)c3)Oc3cc2cc(c3OC2OC(CO)C(O)C(O)C2OC2CC(C)(NCc3cc(C)cs3)C(O)C(C)O2)Oc2ccc(cc2Cl)C1O (stereo not drawn)",
    "EXPERIMENTAL_SYSTEM": "vancomycin-susceptible enterococci",
    "NUMBER": 0.76
  },
  {
    "MOLECULE": "CNC(CC(C)C)C(=O)NC1C(=O)NC(CC(N)=O)C(=O)NC2C(=O)NC3C(=O)NC(C(=O)NC(C(=O)O)c4cc(O)cc(O)c4-c4cc3ccc4O)C(OC3CC(C)(N)C(O)C(C)O3)c3ccc(c(Cl)c3)Oc3cc2cc(c3OC2OC(CO)C(O)C(O)C2OC2CC(C)(NCc3ccc(Cc4ccccc4)cc3)C(O)C(C)O2)Oc2ccc(cc2Cl)C1O (stereo not drawn)",
    "EXPERIMENTAL_SYSTEM": "vancomycin-susceptible enterococci",
    "NUMBER": 0.054
  },
  {
    "MOLECULE": "CC(C)CC(C(=O)NC1C(=O)NC(CC(N)=O)C(=O)NC2C(=O)NC3C(=O)NC(C(=O)NC(C(=O)O)c4cc(O)cc(O)c4-c4cc3ccc4O)C(OC3CC(C)(NCc4cccc5c([N+](=O)[O-])cccc45)C(O)C(C)O3)c3ccc(c(Cl)c3)Oc3cc2cc(c3OC2OC(CO)C(O)C(O)C2OC2CC(C)(N)C(O)C(C)O2)Oc2ccc(cc2Cl)C1O)N(C)Cc1cccc2c([N+](=O)[O-])cccc12 (stereo not drawn)",
    "EXPERIMENTAL_SYSTEM": "vancomycin-susceptible enterococci",
    "NUMBER": 1.1
  }
]

Form: item CCCCCCCCCCC#CCNC1(C)CC(OC2C(Oc3c4cc5cc3Oc3ccc(cc3Cl)C(OC3CC(C)(N)C(O)C(C)O3)C3NC(=O)C(NC(=O)C5NC(=O)C(CC(N)=O)NC(=O)C(NC(=O)C(CC(C)C)NC)C(O)c5ccc(c(Cl)c5)O4)c4ccc(O)c(c4)-c4c(O)cc(O)cc4C(C(=O)O)NC3=O)OC(CO)C(O)C2O)OC(C)C1O (stereo not drawn) ; test system vancomycin-susceptible enterococci; mean geometric MIC, Vancomycin Sensitive Strains: 0.57

mean geometric MIC, Vancomycin Sensitive Strains for vancomycin-susceptible enterococci with input CNC(CC(C)C)C(=O)NC1C(=O)NC(CC(N)=O)C(=O)NC2C(=O)NC3C(=O)NC(C(=O)NC(C(=O)O)c4cc(O)cc(O)c4-c4cc3ccc4O)C(OC3CC(C)(N)C(O)C(C)O3)c3ccc(c(Cl)c3)Oc3cc2cc(c3OC2OC(CO)C(O)C(O)C2OC2CC(C)(NCCCC3CCCC3)C(O)C(C)O2)Oc2ccc(cc2Cl)C1O (stereo not drawn) equals 0.17

Record CNC(CC(C)C)C(=O)NC1C(=O)NC(CC(N)=O)C(=O)NC2C(=O)NC3C(=O)NC(C(=O)NC(C(=O)O)c4cc(O)cc(O)c4-c4cc3ccc4O)C(OC3CC(C)(N)C(O)C(C)O3)c3ccc(c(Cl)c3)Oc3cc2cc(c3OC2OC(CO)C(O)C(O)C2OC2CC(C)(NCc3ccc(N4CCCCC4C)cc3)C(O)C(C)O2)Oc2ccc(cc2Cl)C1O (stereo not drawn) has vancomycin-susceptible enterococci mean geometric MIC, Vancomycin Sensitive Strains equal to 0.22

---

- System: Streptococcus pyogenes C203
- EXPERIMENTAL_DETAILS: broth micro-dilution MIC
- Type: cell-based
PROPERTY: MIC

[
  {
    "COMPOUND": "CNC(CC(C)C)C(=O)NC1C(=O)NC(CC(N)=O)C(=O)NC2C(=O)NC3C(=O)NC(C(=O)NC(C(=O)O)c4cc(O)cc(O)c4-c4cc3ccc4O)C(OC3CC(C)(N)C(O)C(C)O3)c3ccc(c(Cl)c3)Oc3cc2cc(c3OC2OC(CO)C(O)C(O)C2OC2CC(C)(NCc3ccc(Oc4ccc(OC)cc4)cc3)C(O)C(C)O2)Oc2ccc(cc2Cl)C1O (centres unmarked)",
    "MIC": "≤ 0.06 µg/mL"
  }
]

Lab note: next compound to report on.
GET /value?item= CC(C)CC(C(=O)NC1C(=O)NC(CC(N)=O)C(=O)NC2C(=O)NC3C(=O)NC(C(=O)NC(C(=O)O)c4cc(O)cc(O)c4-c4cc3ccc4O)C(OC3CC(C)(NCc4cccc5c([N+](=O)[O-])cccc45)C(O)C(C)O3)c3ccc(c(Cl)c3)Oc3cc2cc(c3OC2OC(CO)C(O)C(O)C2OC2CC(C)(N)C(O)C(C)O2)Oc2ccc(cc2Cl)C1O)N(C)Cc1cccc2c([N+](=O)[O-])cccc12 (centres unmarked) &field=MIC returns ≤ 0.06 µg/mL

---

- Tested on: vancomycin-resistant enterococci
- EXPERIMENTAL_DETAILS: broth micro-dilution, mean geometric MIC
- Type: cell-based, Enterococcus faecium and Enterococcus faecalis
- STUDY_CONDITIONS: enterococci, 24-hour incubation
PROPERTY: mean geometric MIC, Vancomycin Resistant Strains (µg/mL)
Return type: number; implicit unit µg/mL.

Some compounds with recorded mean geometric MIC, Vancomycin Resistant Strains:
[
  {
    "COMPOUND": "CNC(CC(C)C)C(=O)NC1C(=O)NC(CC(N)=O)C(=O)NC2C(=O)NC3C(=O)NC(C(=O)NC(C(=O)O)c4cc(O)cc(O)c4-c4cc3ccc4O)C(OC3CC(C)(N)C(O)C(C)O3)c3ccc(c(Cl)c3)Oc3cc2cc(c3OC2OC(CO)C(O)C(O)C2OC2CC(C)(NCc3ccccn3)C(O)C(C)O2)Oc2ccc(cc2Cl)C1O (centres unmarked) [Compound 31]",
    "U": "µg/mL",
    "NUMBER": 9.5
  },
  {
    "COMPOUND": "CNC(CC(C)C)C(=O)NC1C(=O)NC(CC(N)=O)C(=O)NC2C(=O)NC3C(=O)NC(C(=O)NC(C(=O)O)c4cc(O)cc(O)c4-c4cc3ccc4O)C(OC3CC(C)(N)C(O)C(C)O3)c3ccc(c(Cl)c3)Oc3cc2cc(c3OC2OC(CO)C(O)C(O)C2OC2CC(C)(NCC34CC5CC(CC(C5)C3)C4)C(O)C(C)O2)Oc2ccc(cc2Cl)C1O (centres unmarked) [Compound 141]",
    "U": "µg/mL",
    "NUMBER": 8.0
  },
  {
    "COMPOUND": "CC(C)CC(C(=O)NC1C(=O)NC(CC(N)=O)C(=O)NC2C(=O)NC3C(=O)NC(C(=O)NC(C(=O)O)c4cc(O)cc(O)c4-c4cc3ccc4O)C(OC3CC(C)(N)C(O)C(C)O3)c3ccc(c(Cl)c3)Oc3cc2cc(c3OC2OC(CO)C(O)C(O)C2OC2CC(C)(NCc3ccc(Oc4ccc([N+](=O)[O-])cc4)cc3)C(O)C(C)O2)Oc2ccc(cc2Cl)C1O)N(C)Cc1ccc(Oc2ccc([N+](=O)[O-])cc2)cc1 (centres unmarked) [Compound 267]",
    "U": "µg/mL",
    "NUMBER": 2.8
  },
  {
    "COMPOUND": "CNC(CC(C)C)C(=O)NC1C(=O)NC(CC(N)=O)C(=O)NC2C(=O)NC3C(=O)NC(C(=O)NC(C(=O)O)c4cc(O)cc(O)c4-c4cc3ccc4O)C(OC3CC(C)(N)C(O)C(C)O3)c3ccc(c(Cl)c3)Oc3cc2cc(c3OC2OC(CO)C(O)C(O)C2OC2CC(C)(NCc3cccc4c3oc3ccccc34)C(O)C(C)O2)Oc2ccc(cc2Cl)C1O (centres unmarked) [Compound 39]",
    "U": "µg/mL",
    "NUMBER": 1.2
  },
  {
    "COMPOUND": "CNC(CC(C)C)C(=O)NC1C(=O)NC(CC(N)=O)C(=O)NC2C(=O)NC3C(=O)NC(C(=O)NC(C(=O)O)c4cc(O)cc(O)c4-c4cc3ccc4O)C(OC3CC(C)(N)C(O)C(C)O3)c3ccc(c(Cl)c3)Oc3cc2cc(c3OC2OC(CO)C(O)C(O)C2OC2CC(C)(NCCCCCCCCOc3ccccc3)C(O)C(C)O2)Oc2ccc(cc2Cl)C1O (centres unmarked) [Compound 195]",
    "U": "µg/mL",
    "NUMBER": 2.0
  },
  {
    "COMPOUND": "CNC(CC(C)C)C(=O)NC1C(=O)NC(CC(N)=O)C(=O)NC2C(=O)NC3C(=O)NC(C(=O)NC(C(=O)O)c4cc(O)cc(O)c4-c4cc3ccc4O)C(OC3CC(C)(N)C(O)C(C)O3)c3ccc(c(Cl)c3)Oc3cc2cc(c3OC2OC(CO)C(O)C(O)C2OC2CC(C)(NCc3cc(-c4ccccc4)nc4ccc(OC)cc34)C(O)C(C)O2)Oc2ccc(cc2Cl)C1O (centres unmarked) [Compound 45]",
    "U": "µg/mL",
    "NUMBER": 2.0
  },
  {
    "COMPOUND": "CNC(CC(C)C)C(=O)NC1C(=O)NC(CC(N)=O)C(=O)NC2C(=O)NC3C(=O)NC(C(=O)NC(C(=O)O)c4cc(O)cc(O)c4-c4cc3ccc4O)C(OC3CC(C)(N)C(O)C(C)O3)c3ccc(c(Cl)c3)Oc3cc2cc(c3OC2OC(CO)C(O)C(O)C2OC2CC(C)(NCc3cc(C)cs3)C(O)C(C)O2)Oc2ccc(cc2Cl)C1O (centres unmarked) [Compound 66]",
    "U": "µg/mL",
    "NUMBER": 16
  },
  {
    "COMPOUND": "CN[C@H](CC(C)C)C(=O)N[C@H]1C(=O)N[C@@H](CC(N)=O)C(=O)N[C@H]2C(=O)N[C@H]3C(=O)N[C@H](C(=O)N[C@H](C(=O)O)c4cc(O)cc(O)c4-c4cc3ccc4O)[C@H](O[C@H]3C[C@](C)(N)[C@@H](O)[C@H](C)O3)c3ccc(c(Cl)c3)Oc3cc2cc(c3O[C@@H]2O[C@H](CO)[C@@H](O)[C@H](O)[C@H]2O[C@H]2C[C@](C)(NCc3cccc(-c4ccccc4)c3)[C@@H](O)[C@H](C)O2)Oc2ccc(cc2Cl)[C@H]1O [Compound 91]",
    "U": "µg/mL",
    "NUMBER": 2.8
  }
]

compound CNC(CC(C)C)C(=O)NC1C(=O)NC(CC(N)=O)C(=O)NC2C(=O)NC3C(=O)NC(C(=O)NC(C(=O)O)c4cc(O)cc(O)c4-c4cc3ccc4O)C(OC3CC(C)(N)C(O)C(C)O3)c3ccc(c(Cl)c3)Oc3cc2cc(c3OC2OC(CO)C(O)C(O)C2OC2CC(C)(NCc3ccc(-c4ccc(Br)cc4)cc3)C(O)C(C)O2)Oc2ccc(cc2Cl)C1O (centres unmarked) [Compound 230] , mean geometric MIC, Vancomycin Resistant Strains observed: 0.35

Lab book: mean geometric MIC, Vancomycin Resistant Strains of CC(C)CC(C(=O)NC1C(=O)NC(CC(N)=O)C(=O)NC2C(=O)NC3C(=O)NC(C(=O)NC(C(=O)O)c4cc(O)cc(O)c4-c4cc3ccc4O)C(OC3CC(C)(N)C(O)C(C)O3)c3ccc(c(Cl)c3)Oc3cc2cc(c3OC2OC(CO)C(O)C(O)C2OC2CC(C)(N)C(O)C(C)O2)Oc2ccc(cc2Cl)C1O)N(C)Cc1ccc(-c2ccccc2)cc1 (centres unmarked) [Compound 250] noted as 16

For COc1ccc2nc(-c3ccccc3)cc(CNC3(C)CC(OC4C(Oc5c6cc7cc5Oc5ccc(cc5Cl)C(OC5CC(C)(N)C(O)C(C)O5)C5NC(=O)C(NC(=O)C7NC(=O)C(CC(N)=O)NC(=O)C(NC(=O)C(CC(C)C)N(C)Cc7cc(-c8ccccc8)nc8ccc(OC)cc78)C(O)c7ccc(c(Cl)c7)O6)c6ccc(O)c(c6)-c6c(O)cc(O)cc6C(C(=O)O)NC5=O)OC(CO)C(O)C4O)OC(C)C3O)c2c1 (centres unmarked) [Compound 277] the compound record lists mean geometric MIC, Vancomycin Resistant Strains as 32
